The reported numbers originate from patent EP4818330A1.

Test: CCK8 cell viability (toxicity) assay in primary neurons
Type: cell-based, mouse
Conditions: ICR, mouse, primary hippocampal neurons, 5 µmol, 24 h, CCK8, three replicate wells

{"columns": ["compound", "viability at 24 h, 5 µmol (%)"],
 "data": [
  ["CCOC(=O)c1[nH]c(C)c(CCC(=O)N2CCCC(C(=O)NCCN3CCCCCC3)C2)c1C (stereo not shown) [compound of Formula I]", 70.7]
]}

###

Assay: Blood drug concentration in mice after single intraperitoneal administration
Format: in vivo, Balb/c strain mice
Settings: Balb/c, mouse, serum, ip, 2.5 mg/kg, IP 2.5 mg/kg, 1 hr, mean of 3 animals

{"columns": ["compound", "readingUnit", "concentration at 1 h"],
 "data": [
  ["CCOC(=O)c1[nH]c(C)c(CCC(=O)N2CCCC(C(=O)NCCN3CCCCCC3)C2)c1C (stereo not shown) [compound of Formula I]", "ng/mL", 145]
]}

###

Assay: Drug content in brain tissue after single intraperitoneal administration
Assay type: in vivo, Balb/c strain mice
Conditions: Balb/c, mouse; mice, IP 2.5 mg/kg, 0.5 hr, brain tissue vs blood

{"columns": ["compound", "Kp at 0.5 h"],
 "data": [
  ["CCOC(=O)c1[nH]c(C)c(CCC(=O)N2CCCC(C(=O)NCCN3CCCCCC3)C2)c1C (stereo not shown)", 0.037]
]}

###

Experiment: CCK8 cell viability (toxicity) assay in primary neurons
Format: cell-based, mouse
Settings: ICR, mouse, primary hippocampal neurons, 80 µmol, 24 h, CCK8, three replicate wells

{"columns": ["molecule", "readingUnit", "viability at 24 h, 80 µmol"],
 "data": [
  ["CCOC(=O)c1[nH]c(C)c(CCC(=O)N2CCCC(C(=O)NCCN3CCCCCC3)C2)c1C (stereo not shown)", "%", 4.02]
]}

###

Assay: CCK8 cell viability (toxicity) assay in 293T cell line
Format: cell-based
Settings: human, 293T cells, 293T, 80 µmol, 24 h, CCK8, three replicate wells

{"columns": ["compound", "viability at 24 h, 80 µmol [%]"],
 "data": [
  ["CCOC(=O)c1[nH]c(C)c(CCC(=O)N2CCCC(C(=O)NCCN3CCCCCC3)C2)c1C (stereo not shown) [compound of Formula I]", 22.7]
]}

###

Assay: CCK8 cell viability (toxicity) assay in primary neurons
Type: cell-based, mouse
Settings: ICR, mouse, primary hippocampal neurons, 1.25 µmol, 24 h, CCK8, three replicate wells
measurementLabel: viability at 24 h, 1.25 µmol (%)

{"columns": ["molecule", "numericValue"],
 "data": [
  ["CCOC(=O)c1[nH]c(C)c(CCC(=O)N2CCCC(C(=O)NCCN3CCCCCC3)C2)c1C (stereo not shown) [compound of Formula I]", 94.5]
]}

###

Experiment: Drug content in brain tissue after single intraperitoneal administration
Assay type: in vivo, Balb/c strain mice
Conditions: Balb/c, mouse, brain, ip, 2.5 mg/kg, mice, IP 2.5 mg/kg, 0.5 hr, individual animals; read-out: Concentration (brain tissue)
measurementLabel: concentration at 0.5 h (ng/mL)

{"columns": ["compound", "measurementLabel", "numericValue"],
 "data": [
  ["CCOC(=O)c1[nH]c(C)c(CCC(=O)N2CCCC(C(=O)NCCN3CCCCCC3)C2)c1C (stereo not shown)", "concentration at 0.5 h", 16.8]
]}

###

Assay: CCK8 cell viability (toxicity) assay in 293T cell line
Assay type: cell-based
Details: human, 293T cells, 293T, 40 µmol, 24 h, CCK8, three replicate wells
measurementLabel: viability at 24 h, 40 µmol (%)

{"columns": ["compound", "numericValue"],
 "data": [
  ["CCOC(=O)c1[nH]c(C)c(CCC(=O)N2CCCC(C(=O)NCCN3CCCCCC3)C2)c1C (stereo not shown) [compound of Formula I]", 86.7]
]}

###

Assay: CCK8 cell viability (toxicity) assay in 293T cell line
Assay type: cell-based
Conditions: human, 293T cells, 293T, 5 µmol, 24 h, CCK8, three replicate wells
measurementLabel: viability at 24 h, 5 µmol (%)

{"columns": ["molecule", "measurementLabel", "readingUnit", "numericValue"],
 "data": [
  ["CCOC(=O)c1[nH]c(C)c(CCC(=O)N2CCCC(C(=O)NCCN3CCCCCC3)C2)c1C (stereo not shown) [compound of Formula I]", "viability at 24 h, 5 µmol", "%", 96.6]
]}

###

Test: Blood drug concentration in mice after single intraperitoneal administration
Assay type: in vivo, Balb/c strain mice
Details: Balb/c, mouse, serum, ip, 2.5 mg/kg, IP 2.5 mg/kg, 2 hr, mean of 3 animals
measurementLabel: concentration at 2 h (ng/mL)

{"columns": ["compound", "numericValue"],
 "data": [
  ["CCOC(=O)c1[nH]c(C)c(CCC(=O)N2CCCC(C(=O)NCCN3CCCCCC3)C2)c1C (stereo not shown) [compound of Formula I]", 36.1]
]}

###

Test system: primary neurons
Test: CCK8 cell viability (toxicity) assay in primary neurons
Format: cell-based, mouse
Settings: Mus musculus, Primary neuron, CCK8 toxicity test

{"columns": ["compound", "readingUnit", "IC50"],
 "data": [
  ["O=C(NC1CN(c2ccncn2)CC1CO)c1ccc2ncccc2c1 (stereo not shown)", "µM", 1.67]
]}

###

Assay: CCK8 cell viability (toxicity) assay in primary neurons
Assay type: cell-based, mouse
Details: ICR, mouse, primary hippocampal neurons, 24 h, CCK8, three replicate wells
measurementLabel: viability at 24 h, 2.5 µmol (%)

{"columns": ["molecule", "readingUnit", "numericValue"],
 "data": [
  ["CCOC(=O)c1[nH]c(C)c(CCC(=O)N2CCCC(C(=O)NCCN3CCCCCC3)C2)c1C (stereo not shown)", "%", 90.6]
]}

###

Assay: Blood drug concentration in mice after single intraperitoneal administration
Assay type: in vivo, Balb/c strain mice
Settings: Balb/c, mouse, serum, ip, 2.5 mg/kg, IP 2.5 mg/kg, 0.25 hr, individual animals, read-out: Concentration (blood)
measurementLabel: concentration at 0.25 h (ng/mL)

{"columns": ["compound", "readingUnit", "numericValue"],
 "data": [
  ["CCOC(=O)c1[nH]c(C)c(CCC(=O)N2CCCC(C(=O)NCCN3CCCCCC3)C2)c1C (stereo not shown) [compound of Formula I]", "ng/mL", 369]
]}

###

Assay: Blood drug concentration in mice after single intraperitoneal administration
Assay type: in vivo, Balb/c strain mice
Conditions: Balb/c, mouse, serum, ip, 2.5 mg/kg, IP 2.5 mg/kg, 0.25 hr, mean of 3 animals, read-out: Concentration (blood) Mean

{"columns": ["molecule", "concentration at 0.25 h"],
 "data": [
  ["CCOC(=O)c1[nH]c(C)c(CCC(=O)N2CCCC(C(=O)NCCN3CCCCCC3)C2)c1C (stereo not shown)", "423 ng/mL"]
]}
